Target: human progesterone receptor B (hPRB) (Homo sapiens, UniProt P06401)
Construct: expressed in transfected cells; host or cells: CHO (Chinese hamster ovary) cells
Sequence (P06401 whole entry): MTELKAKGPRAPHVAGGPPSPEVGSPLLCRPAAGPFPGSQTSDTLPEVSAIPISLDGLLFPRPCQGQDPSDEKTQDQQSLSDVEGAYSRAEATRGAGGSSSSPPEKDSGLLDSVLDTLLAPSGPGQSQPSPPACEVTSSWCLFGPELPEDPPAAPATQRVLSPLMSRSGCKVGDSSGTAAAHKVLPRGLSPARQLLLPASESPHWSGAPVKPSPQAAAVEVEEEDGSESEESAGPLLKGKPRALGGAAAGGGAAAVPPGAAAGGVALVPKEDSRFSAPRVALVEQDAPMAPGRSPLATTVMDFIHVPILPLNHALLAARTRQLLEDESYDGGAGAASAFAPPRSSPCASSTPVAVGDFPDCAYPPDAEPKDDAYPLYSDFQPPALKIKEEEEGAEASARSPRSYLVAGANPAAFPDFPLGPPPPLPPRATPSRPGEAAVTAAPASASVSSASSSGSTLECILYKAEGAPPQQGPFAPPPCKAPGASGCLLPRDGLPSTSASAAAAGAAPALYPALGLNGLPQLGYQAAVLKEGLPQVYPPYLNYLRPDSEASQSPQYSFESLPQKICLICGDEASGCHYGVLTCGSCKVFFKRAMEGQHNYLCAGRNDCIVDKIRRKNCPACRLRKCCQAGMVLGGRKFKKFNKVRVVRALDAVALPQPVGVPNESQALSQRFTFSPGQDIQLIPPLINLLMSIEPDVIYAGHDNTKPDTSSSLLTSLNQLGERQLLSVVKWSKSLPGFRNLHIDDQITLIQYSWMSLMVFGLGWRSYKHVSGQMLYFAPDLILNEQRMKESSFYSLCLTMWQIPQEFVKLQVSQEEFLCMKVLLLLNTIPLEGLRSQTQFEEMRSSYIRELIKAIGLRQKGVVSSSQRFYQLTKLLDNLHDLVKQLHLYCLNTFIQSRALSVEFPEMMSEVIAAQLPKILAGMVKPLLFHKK
Assay: Progestational activity (transactivation in CHO cells transfected with hPRB, MMTV-luciferase, compared with (16α)-16-ethyl-21-hydroxy-19-norpregn-4-ene-3,20-dione)
Format: cell-based
Parameters: key: (−) very weak activity found; (+) activity found; (++) high activity; (+++) excellent activity
Details: rated by scheme
reported_property: Progestational activity

compound	reported_property	observed_result
CCC1=C2[C@@H]3[C@H](CC)CC4=CC(=O)CC[C@@H]4[C@H]3CC[C@]2(C)[C@@H](O)C1 [Example 4]	Progestational activity	+
C=C[C@@H]1CC2=CC(=O)CC[C@@H]2[C@H]2CC[C@@]3(C)C(=C[C@@H](C)[C@@H]3O)[C@@H]21 [Example 7c]	Progestational activity	+
CC[C@@H]1CC2=CC(=O)CC[C@@H]2[C@H]2CC[C@@]3(C)C(=C(C)C[C@@H]3O)[C@H]12 [Example 3]	Progestational activity	+
C[C@@H]1C=C2[C@@H]3CCC4=CC(=O)CC[C@@H]4[C@H]3CC[C@]2(C)[C@H]1O [Example 6a]	Progestational activity	+
CCC1=C2[C@H]3[C@H](CC[C@]2(C)[C@@H](O)C1)[C@H]1CCC(=O)C=C1C[C@H]3C [Example 2]	Progestational activity	++
CC[C@]12CC[C@H]3[C@H](C1=C(C)C[C@@H]2O)[C@H](C)CC1=CC(=O)CC[C@@H]13 [Example 5]	Progestational activity	+

Attention now turns to another entry.
Please give the documented Progestational activity of C[C@@H]1CC2=CC(=O)CC[C@@H]2[C@H]2CC[C@@]3(C)C(=CC[C@@H]3O)[C@@H]21 [Reference compound (Segaloff comp.*), reference compound] −

====

Biological target: human androgen receptor (hAR) (Homo sapiens)
Construct: expressed in transfected cells; host or cells: CHO (Chinese hamster ovary) cells
Sequence (P10275 whole entry): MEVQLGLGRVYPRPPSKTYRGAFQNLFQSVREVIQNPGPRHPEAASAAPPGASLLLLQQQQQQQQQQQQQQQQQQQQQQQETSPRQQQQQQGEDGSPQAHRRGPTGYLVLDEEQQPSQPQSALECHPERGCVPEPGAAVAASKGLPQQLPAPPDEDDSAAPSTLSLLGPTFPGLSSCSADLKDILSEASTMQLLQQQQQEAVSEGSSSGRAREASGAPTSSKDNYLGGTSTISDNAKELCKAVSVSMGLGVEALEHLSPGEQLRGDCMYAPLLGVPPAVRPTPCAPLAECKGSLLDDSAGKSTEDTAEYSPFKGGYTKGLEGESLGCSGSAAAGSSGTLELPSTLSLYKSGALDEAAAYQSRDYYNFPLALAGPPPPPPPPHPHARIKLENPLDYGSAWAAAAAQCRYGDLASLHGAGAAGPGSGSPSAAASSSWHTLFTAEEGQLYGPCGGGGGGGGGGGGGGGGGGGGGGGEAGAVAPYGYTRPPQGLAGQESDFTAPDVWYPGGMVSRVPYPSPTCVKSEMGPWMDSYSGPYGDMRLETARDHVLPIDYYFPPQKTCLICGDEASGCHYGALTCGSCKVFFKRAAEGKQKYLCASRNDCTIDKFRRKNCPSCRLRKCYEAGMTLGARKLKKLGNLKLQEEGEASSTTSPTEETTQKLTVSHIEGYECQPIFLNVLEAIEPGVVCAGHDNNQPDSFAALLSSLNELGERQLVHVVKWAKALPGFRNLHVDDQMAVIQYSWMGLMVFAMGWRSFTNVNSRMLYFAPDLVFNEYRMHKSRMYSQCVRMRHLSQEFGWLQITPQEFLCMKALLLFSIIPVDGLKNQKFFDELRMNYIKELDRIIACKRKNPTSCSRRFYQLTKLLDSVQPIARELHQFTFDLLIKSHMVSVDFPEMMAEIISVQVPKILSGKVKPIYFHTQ
Assay: Androgenic activity (transactivation in CHO cells transfected with hAR, MMTV-luciferase, compared with 5α-dihydrotestosterone)
Type: cell-based
Design: key: (−) very weak activity found; (+) activity found; (++) high activity; (+++) excellent activity
Settings: rated by scheme
reported_property: Androgenic activity

molecule	observed_result
C=C[C@@H]1CC2=CC(=O)CC[C@@H]2[C@H]2CC[C@@]3(C)C(=C[C@@H](C)[C@@H]3O)[C@@H]21 [Example 7c]	++
C[C@@H]1CC2=CC(=O)CC[C@@H]2[C@H]2CC[C@@]3(C)C(=CC[C@@H]3O)[C@@H]21 [Reference compound (Segaloff comp.*), reference compound]	+++
CCC1=C2[C@@H]3[C@H](CC)CC4=CC(=O)CC[C@@H]4[C@H]3CC[C@]2(C)[C@@H](O)C1 [Example 4]	+
CC[C@@H]1CC2=CC(=O)CC[C@@H]2[C@H]2CC[C@@]3(C)C(=C(C)C[C@@H]3O)[C@H]12 [Example 3]	++
CC[C@]12CC[C@H]3[C@H](C1=C(C)C[C@@H]2O)[C@H](C)CC1=CC(=O)CC[C@@H]13 [Example 5]	++

Attention now turns to another entry.
Please give the documented Androgenic activity of CCC1=C2[C@H]3[C@H](CC[C@]2(C)[C@@H](O)C1)[C@H]1CCC(=O)C=C1C[C@H]3C [Example 2] +
